Test system: HEK-293T
Test: Multiplex assay against HEK293T
Format: toxicity, cell-based
Conditions: human, 48 h, 10 µM, compound concentration 10 uM, replicate 2
Response field label: string, one of y (Population Hoechst High Intensity Objects (%) strictly below 6%) or n.

molecule	group
Cc1sc2c(c1C)C(c1ccc(Cl)cc1)=N[C@H](CC(=O)OC(C)(C)C)c1nnc(C)n1-2	y
COc1c(Nc2ccc(S(C)(=O)=O)nc2C)ncnc1OC1CCN(C(=O)OC(C)C)CC1 [ADP-597]	n
Cc1cc(-c2ccc3c(c2)CC[C@H]3N2CC3(CCN(C(=O)Cc4cn5cc(C)sc5n4)CC3)C2)ncn1 [PF-5190457]	y
CN1CCN2c3ccccc3Cc3ccccc3C2C1.Cl (stereo not drawn) [MIANSERIN HYDROCHLORIDE]	y
O=c1nc2[nH]c3ccccc3nc-2c(=O)[nH]1 [ALLOXAZINE]	y

Attention now turns to another entry.
Quick check: Population Hoechst High Intensity Objects (%) of `COc1cc(C(=O)N2CC[C@@H](O)[C@@H](N)C2)cc2nc(-c3cc4ccccc4n3CC3CC3)n(C)c12.Cl` under 6%?
n

---

Population Hoechst High Intensity Objects (%) listing for selected compounds.
System: HEK-293T
Assay: Multiplex assay against HEK293T
Assay type: toxicity, cell-based
Settings: human, 24 h, 10 µM, compound concentration 10 uM, replicate 2
Write the answer as a number in %, unit excluded.

Sample answers from the record:
compound	unit_info	recorded_measurement
COc1cc2nc(N3CCN(C(=O)COc4c(OC)cccc4C(C)C)CC3)nc(N)c2cc1OC.Cl.Cl	%	39
COc1cc(Nc2ncc3c(n2)-c2ccc(Cl)cc2C(c2c(F)cccc2OC)=NC3)ccc1C(=O)O [ALISERTIB]	%	34
O=C(NCCNCC(O)COc1ccc(O)cc1)N1CCOCC1.O=C(NCCNCC(O)COc1ccc(O)cc1)N1CCOCC1.O=C(O)/C=C/C(=O)O (centres undefined) [XAMOTEROL FUMARATE]	%	4

Please look at the following compound next.
// lookup Population Hoechst High Intensity Objects (%) for CN1CCN2c3ccccc3Cc3ccccc3C2C1.Cl (centres undefined) [MIANSERIN HYDROCHLORIDE]
3

---

Population Normal (%) listing for selected molecules.
System: Fibroblast
Assay: Multiplex assay against human fibroblast
Format: toxicity, cell-based
Details: 12 h, 1 µM, compound concentration 1 uM, replicate 2
Write the answer as a number in %, unit excluded.

Sample answers from the record:
molecule	unit_info	Population Normal (%)
O=C(O)CCC/C=C\CC1C(O)CC(O)C1/C=C/C(O)COc1cccc(Cl)c1 (centres undefined) [CLOPROSTENOL]	%	97
CC(C)C[C@H](CO)Nc1nc(S[C@@H](C)c2ccccc2)nc2nc(N)sc12 [AZD-8797]	%	95
CC(F)(F)CN1CCOc2c(nn(-c3ccccc3Cl)c2-c2ccc(Cl)cc2)C1=O	%	93

// lookup Population Normal (%) for `CN1CCC(C(=O)c2cccc(NC(=O)c3c(F)cc(F)cc3F)n2)CC1`
97

Next record, please: CN1C[C@H](C(=O)N[C@]2(C)O[C@@]3(O)[C@@H]4CCCN4C(=O)[C@H](Cc4ccccc4)N3C2=O)C[C@@H]2c3cccc4[nH]cc(c34)C[C@H]21.CS(=O)(=O)O [DIHYDROERGOTAMINE MESYLATE]
92
